# protocol text: ATG_TA_CIS: Attagene CIS-FACTORIAL HepG2 Assay for human TA Basal Promoter (AID 2282964)
# cond: HepG2 Attagene CIS-factorial TA basal promoter reporter; actives raise or lower the signal
Activity calls are given as the source filed them. How the source made its calls: active means hit-call score of the fitted dose curve at least 0.9, where 1 is the maximum; inactive means score below 0.9.
Bench note: report the call from active, inactive

CN(C)CCC#N : inactive
CCC(C)(C)O : inactive
BrCBr : inactive
CCCCNP(N)(N)=S : inactive
CC(C)(c1cc(Cl)c(O)c(Cl)c1)c1cc(Cl)c(O)c(Cl)c1 : inactive
CCCOC(=O)c1ccccc1C(=O)OCCC : inactive
CCCC=NO : inactive
O=P1(NCCCl)OCCCN1CCCl (stereo not given) : inactive
O=C(O)CCCc1ccc(N(CCCl)CCCl)cc1 : inactive
CC(C)(C)C(O)C(Oc1ccc(-c2ccccc2)cc1)n1cncn1 (stereo not given) : active

Assay result, entry N#CCCCl — outcome? inactive

Another compound to look at: Cc1ccc(OP(=O)(Oc2ccc(C)cc2)Oc2ccc(C)cc2)cc1 (tested in a mixture with another compound) inactive

Another compound to look at: C=COCCCl inactive

Another compound to look at: O=[N+]([O-])c1cc([N+](=O)[O-])c2ccccc2c1 inactive

Another compound to look at: c1cc(OCC2CO2)ccc1Cc1ccc(OCC2CO2)cc1 (stereo not given) inactive

###

# measured target: Cellular tumor antigen p53 (Homo sapiens) (UniProt P04637)
# Sequence (P04637 whole entry, looked up): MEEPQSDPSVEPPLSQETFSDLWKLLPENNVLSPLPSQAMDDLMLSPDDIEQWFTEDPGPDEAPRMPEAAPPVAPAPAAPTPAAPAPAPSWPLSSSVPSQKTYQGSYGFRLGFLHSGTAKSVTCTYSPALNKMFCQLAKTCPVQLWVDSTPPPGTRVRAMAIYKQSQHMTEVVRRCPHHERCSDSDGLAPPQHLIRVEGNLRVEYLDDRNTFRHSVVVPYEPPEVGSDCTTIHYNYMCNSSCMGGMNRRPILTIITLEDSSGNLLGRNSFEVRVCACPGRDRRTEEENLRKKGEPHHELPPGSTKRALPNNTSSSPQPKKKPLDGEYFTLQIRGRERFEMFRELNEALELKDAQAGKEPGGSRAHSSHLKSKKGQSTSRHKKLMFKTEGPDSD
# protocol text: TOX21_p53_BLA_p3_ratio: Tox21 HCT-116 p53 Agonism Beta-lactamase Assay, Ratio, Phase 3 (AID 2283596)
# Experimental: TOX21_p53_BLA_p3 is a cell-based, single-readout assay that uses HCT116, a human intestinal cell line, […] in a 1536-well plate.TOX21_p53_BLA_p3_ratio is an assay readout measuring reporter gene via receptor activity and designed using inducible reporter (beta lactamase induction) detected with GAL4 b-lactamase reporter gene. […] This assay endpoint, TOX21_p53_BLA_p3_ratio, was analyzed in the positive analysis fitting direction relative to DMSO as the negative control and baseline of activity. […]
Records with an inconclusive call do not appear. Activity calls are given as the source filed them. How the source made its calls: active means hit-call score of the fitted dose curve at least 0.9, where 1 is the maximum; inconclusive means response in the unintended direction; inactive means score below 0.9.
Bench note: report the call from TRUE (active), FALSE (inactive)

Check out these entries, answers already filled in.
C[C@]12CC[C@H](OS(=O)(=O)O)CC1=CC[C@@H]1[C@@H]2CC[C@]2(C)C(=O)CC[C@@H]12 : FALSE
C[C@@H]([C@H](O)c1ccccc1)N(C)C : FALSE
CCN(CC)C(=O)N[C@@H]1C=C2c3cccc4[nH]cc(c34)C[C@@H]2N(C)C1 : FALSE
CNC(C)CC1CCCCC1 (configuration not stated) : FALSE
C=CC(=O)OCC(CC)CCCC (configuration not stated) : FALSE
O=[Se]=O : TRUE
CCCCCCCCCCCCCCCl : FALSE
CC(=O)Oc1ccc2c3c1O[C@H]1[C@@H](OC(C)=O)C=C[C@H]4[C@@H](C2)N(C)CC[C@@]341 : FALSE
CC(C)(C)C(=O)C(Cl)Cl : FALSE
NC(=S)c1c(Cl)cccc1Cl : FALSE

Assay result, entry O=C(O)c1cc[c]([Hg][Cl])cc1 — outcome? FALSE

Another molecule to look at: ClC(Cl)(Cl)Cl FALSE

###

# measured target: human Matrix Metalloproteinase-1 (MMP1), MMP1 (gene 4312) (UniProt P03956)
# Sequence (P03956 whole entry, looked up): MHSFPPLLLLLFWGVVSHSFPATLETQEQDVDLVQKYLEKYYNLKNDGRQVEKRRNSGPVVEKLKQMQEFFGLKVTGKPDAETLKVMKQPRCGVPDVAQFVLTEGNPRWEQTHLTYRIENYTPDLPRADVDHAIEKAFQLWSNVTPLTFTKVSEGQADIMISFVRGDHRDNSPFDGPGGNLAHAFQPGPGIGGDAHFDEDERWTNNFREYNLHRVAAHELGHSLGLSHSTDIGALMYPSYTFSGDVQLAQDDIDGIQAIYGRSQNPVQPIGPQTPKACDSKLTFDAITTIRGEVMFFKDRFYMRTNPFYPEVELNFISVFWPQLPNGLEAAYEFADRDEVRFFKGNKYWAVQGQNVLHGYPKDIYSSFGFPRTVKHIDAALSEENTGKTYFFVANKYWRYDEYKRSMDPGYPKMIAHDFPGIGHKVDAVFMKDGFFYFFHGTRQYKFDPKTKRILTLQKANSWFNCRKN
# protocol text: NVS_ENZ_hMMP1: NovaScreen (NVS) Enzymatic Assay for human Matrix Metalloproteinase-1 (MMP1) (AID 2283181)
Results filed as inconclusive are left out. Active and inactive are the calls of the source. How the source made its calls: active means hit-call score of the fitted dose curve at least 0.9, where 1 is the maximum; inconclusive means response in the unintended direction; inactive means score below 0.9.
Bench note: report the call from class 1 (active), class 0 (inactive)

Check out these entries, answers already filled in.
O=C(O)c1cccnc1 : class 0
CCCCCCCCCC : class 0

Okay, next one:
Assay result, entry CCCOC(=O)c1cc(O)c(O)c(O)c1 — outcome? class 1
